EXPERIMENT DESCRIPTION: yeast display, Sf9 membrane polyspecificity reagent, FACS + sequencing; frameworks hold sequencing errors
EXPERIMENTAL READOUT: polyreactivity (PSR sort gate)

Would you please look over these solved cases?
# SEQUENCE ENTRY, EXPERIMENTAL READOUT, RESULT
measured = [
    ("QVQLVESGGGLVQAGGSLRLSCAASGRTFSANAMGWYRQAPGKERELVATISSGGRTNYADSVKGRFTISRDNAMNTVYLQMNSLKPEDTAVYYCAADFDYAYWDTTYDYWGQGTQVTVSS", "polyreactivity (PSR sort gate)", "low polyreactivity"),
    ("QVQLVESGGGLVQAGGSLRLICAASGSTFGGNVMGWYRQAPGKERELVAAINWSGGRTYYADSVKGRFTISRDNAKNTVYLQMNSLKPEDTAVYYCAADGGQNGMNYWGQGTQVTVSS", "polyreactivity (PSR sort gate)", "high polyreactivity"),
    ("QVQLVESGGGLVQAGGSLRLSCAASGRILRYYAMGWYRQAPGKERELVASITSGGSTYYADSVKGRFTISRDNAKNTVSLQMNSLKPEDTAVYYCAARNSYRVDLSYYAYDYWGQGTQVTVSS", "polyreactivity (PSR sort gate)", "high polyreactivity"),
    ("QVQLVESGGGLVLAGGSLRLSCAASGRIFGTNAMGWYRQAPGKERELVAAISLSGGRTYADSVKGRFTISRDNAKNTVYLQMNSLKPEDTAVYYCNADSAGITRSRSELDYWGQGTQVTVSS", "polyreactivity (PSR sort gate)", "low polyreactivity"),
    ("QVQLVESGGGLVQAGGSLRLSCAASGSLIRRYAMGWYRQAPGKEREFVAAISGRGGRTYYADSVKGRFTISRDNAKNTVYLQMNSLKPEDTAVYYCNAAFVTAEMDYWGQGTQVTVSS", "polyreactivity (PSR sort gate)", "high polyreactivity"),
    ("QFQLVESGGGLVKAGGSLRLSCAASGLTNIYNARGWYRQAPGKERELVAAISGNGGDTYSADSVKGRFTISRDNAKNTVYLQMNSLKPEDTAVYYCAADYAYTPITWDEYWGQGTQVTVSS", "polyreactivity (PSR sort gate)", "low polyreactivity"),
    ("QFQLVESGGGLVQARGSLRLSCAPSGRTFGIYTMGWYRPAPGKERELVAAISAGGGRTSYADSVKGRFTISRDHAKNTVYLQMMSLKPEDTAVYYCAARVYQYRNEDTTRRAGRSYWGQGTQVTVSS", "polyreactivity (PSR sort gate)", "high polyreactivity"),
    ("QVQLVESGGGLVQAGGSLRLSCAASGRIFSHYAMGWYRQAPGKERELVAAITWSGGRTYYADSVKGRFTISRDNAKNTVYLQMNSLKPEDTAVYYCNAYPSSSLFDYWGQGTQVTVSS", "polyreactivity (PSR sort gate)", "low polyreactivity"),
    ("QVQLVESGGGLVQAGGSLRLSCAASGLTFYYYTMGWYRQAPGKERELVATISRSGTSTNYADSVKGRFTISRDNAKNTVYLQMNSLKPEDTAVYYCAAVLRWRDLFSEYYYWGQGTQVTVSS", "polyreactivity (PSR sort gate)", "high polyreactivity"),
    ("QVQLVESGGGLVQAGGSLSLSCPASGRIFRWNAMGWYRQAPGKEREFVAAISWSGGSTYYADSVKGRFTISRDNAKNTVYLQMNSLKPEDTAVYYCNKVGYYGVGTSQEFDYWGQGTQVTVSS", "polyreactivity (PSR sort gate)", "high polyreactivity"),
]

Identify the reported polyreactivity (PSR sort gate) for the following entry. QVQLVESGGGLVQAGGSLRLSCAASGRIFSRNAMGWYRQAPGKERELVAAISRTGGSTYYADSVKGRFTISRDNAKNTVYLQMNSLKPEDTAVYYCADAYYRKSSYGQIVEYDYWGQGTQVTVSS high polyreactivity

Reference for the values: the nanobody polyreactivity screen of Harvey et al. (2022)
